src = patent US11357779B2

# assay.remarks: Plasma concentration versus time of Compound I and metabolite Compound III in patients dosed QD or BID with Form B of Compound II plus fulvestrant
# Assay type: in vivo, human
# assay.context: human, plasma, oral, 650 mg, Cohort 5, 650 mg QD of Form B, Day 29, 4.0 h; read-out: Compound I Concentration, Min
measure: concentration at 4 h (ng/mL)
The answer is to be given in ng/mL; state only the numeric part.

Inquiry: What does the record list as concentration at 4 h for CC(C)N1CCN(c2ccc(Nc3ncc4cc5n(c4n3)C3(CCCCC3)CNC5=O)nc2)CC1 ?
Reply text: 22.3

---

# assay.remarks: Noncompartmental pharmacokinetic parameters (Cmax, Tmax, AUC, Racc) in QD and BID cohorts of Form B
# Assay type: in vivo, human
# assay.context: human, plasma, oral, 200 mg, Compound I; 200 mg QD of Form B; Cohort 1; Day 29; read-out: Tmax (Median)
# Experimental: Analysis of plasma concentration versus time data for calculation of standard pharmacokinetic (PK) parameters following oral administration was conducted using Phoenix WinNonlin version 6.3 using actual blood sampling times. […]
measure: Tmax (h)
The answer is to be given in h; state only the numeric part.

Inquiry: What does the record list as Tmax for CC(C)N1CCN(c2ccc(Nc3ncc4cc5n(c4n3)C3(CCCCC3)CNC5=O)nc2)CC1 ?
Reply text: 4

---

# assay.remarks: Plasma concentration versus time of Compound I and metabolite Compound III in patients dosed QD or BID with Form B of Compound II plus fulvestrant
# Type: in vivo, human
# assay.context: human, plasma, oral, 400 mg, 400 mg QD of Form B, Day 29, 12.0 h, Median; read-out: Compound I Concentration
measure: concentration at 12 h (ng/mL)
The answer is to be given in ng/mL; state only the numeric part.

Inquiry: What does the record list as concentration at 12 h for CC(C)N1CCN(c2ccc(Nc3ncc4cc5n(c4n3)C3(CCCCC3)CNC5=O)nc2)CC1 [Compound I] ?
Reply text: 13.5

---

# assay.remarks: Plasma concentration versus time of Compound I and metabolite Compound III in patients dosed QD or BID with Form B of Compound II plus fulvestrant
# Type: in vivo, human
# assay.context: human, plasma, oral, 300 mg, 300 mg QD of Form B, Day 1, 8.0 h, Median; read-out: Compound I Concentration
# Excerpt: Patients were enrolled into 1 of 2 parallel, independently operating, dose-escalation dosing cohorts with Form B of Compound II administered continuously either once daily (QD) or twice daily (BID) with food with fixed-dose fulvestrant (intramuscularly every 14 days for the first three injections and then every 28 days). Pre- or perimenopausal patients also received goserelin for the duration of study treatment. […]
measure: concentration at 8 h (ng/mL)
The answer is to be given in ng/mL; state only the numeric part.

Inquiry: What does the record list as concentration at 8 h for CC(C)N1CCN(c2ccc(Nc3ncc4cc5n(c4n3)C3(CCCCC3)CNC5=O)nc2)CC1 [Compound I] ?
Reply text: 28.1

---

# assay.remarks: Noncompartmental pharmacokinetic parameters (Cmax, Tmax, AUC, Racc) in QD and BID cohorts of Form B
# Format: in vivo, human
# assay.context: human, plasma, oral, 100 mg, Compound III; 100 mg BID of Form B; Cohort 6; Day 1; read-out: Cmax (Mean)
measure: Cmax (ng/mL)
The answer is to be given in ng/mL; state only the numeric part.

Inquiry: What does the record list as Cmax for O=C1NCC2(CCCCC2)n2c1cc1cnc(Nc3ccc(N4CCNCC4)cn3)nc12 ?
Reply text: 1.59
